Sourced from patent US20060121022A1

Biological target: activated protein C (aPC; protein C from human plasma, activated, SIGMA P-2200) (human, UniProt P04070 43-461)
Sequence (P04070 43-461): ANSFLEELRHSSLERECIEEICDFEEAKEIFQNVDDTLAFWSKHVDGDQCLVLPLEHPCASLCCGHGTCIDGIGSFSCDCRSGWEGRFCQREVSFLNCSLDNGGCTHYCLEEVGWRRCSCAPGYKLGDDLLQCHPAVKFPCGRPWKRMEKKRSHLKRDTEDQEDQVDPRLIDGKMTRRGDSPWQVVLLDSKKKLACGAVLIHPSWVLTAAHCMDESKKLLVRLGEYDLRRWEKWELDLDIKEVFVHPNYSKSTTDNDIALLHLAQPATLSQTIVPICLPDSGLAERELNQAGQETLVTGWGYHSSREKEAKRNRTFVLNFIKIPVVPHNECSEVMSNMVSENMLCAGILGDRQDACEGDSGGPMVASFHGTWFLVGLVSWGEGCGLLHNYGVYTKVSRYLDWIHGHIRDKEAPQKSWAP
Test: cell-based or functional assay
Assay endpoint: …ON SUPPRESSION RATE (%), EXPERIMENT 1 (APTT coagulation time, human plasma)
Record the result as number plus unit.

[Q] Give its …ON SUPPRESSION RATE (%), EXPERIMENT 1 (APTT coagulation time, human plasma) value. Item: anti-aPC antibody aPC#285 (hybridoma well No. 285) (antibody, IgG1, V domains shown) VH: QVQLQQSGSEVVKPGASVKISCKASGYAFSRSWMNWVKQRPGQGLEWIGRIYPGDGDSIYNGKFKGKATLTADKSSTTAYMHLNSLTSVDSAVYFCARWGSSGSSWFAYWGQGTLVTVSA VL: DIQMTQSPASLSASMGETVTITCRTSENIYSYLAWYRQKQGKSPQLLVYNAKTLAEGVPSRFSGSGSGTQFSLRINSLQPEDFGSYFCQHYYGSPYTFGGGTKLEIK
[A] 24.5%

[Q] Which …ON SUPPRESSION RATE (%), EXPERIMENT 1 (APTT coagulation time, human plasma) is listed for anti-aPC antibody aPC#79 (hybridoma well No. 79) (antibody, IgG2b, V domains shown) VH: QVQLQQSGAELARPGASVKLSCKASGYTFTDSYMNWVKQRTGQGLEWIGEVYPETGNSYYNEKFKGKATLTADRSSKTAYMQLNSLTSEDSAVYFCTRGGTGFDYWGQGTTLTVSS VL: QIVLAQSPAIMSASLGERVTMTCTASSSVSSSYLHWYQQKPGSSPKAWIYSTSNLASGAPTRFSGSGSGTSYSLTISSMEAEDAATYYCHQYHRSPFTFGSGTKLEIK ?
[A] 88%

[Q] Value lookup for …ON SUPPRESSION RATE (%), EXPERIMENT 1 (APTT coagulation time, human plasma); key = anti-aPC antibody aPC#123 (hybridoma well No. 123) (antibody, IgG2b, V domains shown) VH: QVQLQQSGPELVKPGASVKISCKASGYAFSSSWMNWVKQRPGQGLEWIGRIYPGDGDTNYNGKFRGKATLTADKSSSTAYMQLTSLTSVDSAVYFCARWGITTAAWFAYWGQGTLVTVSA VL: DIQMTQSPASLSASVGETVTITCRTSENIYSYLAWYQQKQGKSPQLLVNNAKTLAEGVPSRFSGSGSGTQFSLKINSLQPEDFGTYYCQHYYGTPPTFGGGTKLEIK
[A] 23.4%
